test system: HOP-92 NSCLC; experiment: NCI-60 one-dose screen, 48 h (100 = growth as untreated, 0 = no growth, -100 = all killed); settings: 10 µM unless noted
This is part of a sample that, as a whole, favours compounds with a hit. Of some 83,000 tested, about 20% had one in any assay.
Listed below: growth values for each entry.
Number only, in %; omit the unit.

// below: answered compounds
COC(=O)C12CC(NC(=O)c3csc([C@@H](C[C@H](C(C)C)N(C)C(=O)[C@@H](NC(=O)[C@H]4CCCCN4C)C4CC4)OC(C)=O)n3)(C1)C2	18.7
COc1cc(C=Nc2cccc(Br)c2)ccc1N(CCCl)CCCl	74.8
O=C(Nc1ccc([As]=[As]c2ccc(NC(=O)c3ccccc3)cc2)cc1)c1ccccc1 (configuration not stated)	-93.1

Provide the documented growth with HOP-92 NSCLC as the system for CC(C)[C@]12O[C@H]1[C@@H]1O[C@]13[C@]1(O[C@H]1C[C@H]1c4c(C(=O)c5ccccc5)oc(OC(=O)c5ccccc5)c4CC[C@@]13C)[C@@H]2O
-9.38

Provide the documented growth with HOP-92 NSCLC as the system for CC1=C(O)[C@@](C)(CCCCC[C@H](C)CCCCc2ccc(O)cc2)OOC1=O
75.2

Provide the documented growth with HOP-92 NSCLC as the system for CC1(C)N=C(N)N=C(N)N1c1ccc(OCCCNC(=O)Nc2ccc(S(=O)(=O)F)cc2)c(Cl)c1
78.6

Provide the documented growth with HOP-92 NSCLC as the system for C=C1C[C@](OC)([C@H](O)C(=O)N[C@@H](OC)[C@@H]2C[C@@H](O)C(C)(C)[C@@H](C[C@@H](COC)OC)O2)O[C@H](C)[C@@H]1C
-65.1

###

system: CCRF-CEM leukemia; assay: NCI-60 one-dose screen, 48 h (100 = growth as untreated, 0 = no growth, -100 = all killed); settings: 10 µM unless noted
The panel holds about 83,000 compounds, 20% with a hit somewhere; the sample as a whole holds those more often.
Observation Type: growth (%)
Number only, in %; omit the unit.

// below: answered compounds
COC(=O)[C@@H](C)C[C@H](Cc1ccccc1)NC(=O)c1csc([C@@H](C[C@H](C(C)C)N(C)C(=O)[C@@H](NC(=O)[C@H]2CCCCN2C)c2ccc(F)cc2)OC(C)=O)n1	8.77
O=C(CC1(O)C(=O)N(Cc2ccccc2)c2ccc(F)cc21)c1ccc(C(=O)NCC2CCC3(CC2)OOC2(CCCCC2)OO3)cc1 (stereo not given)	-36.9
C[C@@H]1C[C@@]2(C)[C@@H](CC[C@@H]3[C@@H]2CC[C@]2(C)C(=O)CC[C@@H]32)CC1=O	83.7
COc1cc(C=Nc2cccc(C(=O)O)c2)ccc1N(CCCl)CCCl	102
COC(=O)[C@@H](C)C[C@H](Cc1ccccc1)NC(=O)c1csc([C@@H](C[C@H](C(C)C)N(C)C(=O)[C@H](C)NC(=O)[C@H]2CCCN2C)OC(C)=O)n1	18.7

Provide the documented growth with CCRF-CEM leukemia as the system for COC(=O)[C@@H](C)C[C@H](Cc1ccccc1)NC(=O)c1csc([C@@H](C[C@H](C(C)C)N(C)C(=O)[C@@H](NC(=O)C23CC(NC(C)=O)(C2)C3)C2CC2)OC(C)=O)n1
9.99
